# Test system: Serratia marcescens
# Protocol description: Compound was tested for its antibacterial activity against Serratia marcescens ATCC 14756 strain.
# Assay type: functional
Attribute: MIC
Measurement name: MIC

>  <Compound>
C[C@@H](NC(=O)[C@@H](N)CCS(C)(=O)=O)P(=O)(O)O

>  <Measurement name>
MIC

>  <Experimental result>
> 128 µg/mL

$$$$
>  <Compound>
C[C@@H](NC(=O)[C@@H](N)Cc1ccccc1)P(=O)(O)O

>  <Measurement name>
MIC

>  <Experimental result>
4 µg/mL

$$$$
>  <Compound>
CSCC[C@H](N)C(=O)N[C@H](C)P(=O)(O)O

>  <Measurement name>
MIC

>  <Experimental result>
2 µg/mL

$$$$
>  <Compound>
CCCSC[C@H](N)C(=O)N[C@H](C)P(=O)(O)O

>  <Measurement name>
MIC

>  <Experimental result>
0.5 µg/mL

$$$$
>  <Compound>
C[C@@H](NC(=O)[C@@H](N)Cc1cccs1)P(=O)(O)O

>  <Measurement name>
MIC

>  <Experimental result>
4 µg/mL

$$$$
>  <Compound>
C[C@@H](NC(=O)[C@@H](N)CCCCN=C(N)N)P(=O)(O)O

>  <Measurement name>
MIC

>  <Experimental result>
2 µg/mL

$$$$
>  <Compound>
C[C@@H](NC(=O)[C@@H](N)CS)P(=O)(O)O

>  <Measurement name>
MIC

>  <Experimental result>
> 128 µg/mL

$$$$
>  <Compound>
C[C@@H](NC(=O)[C@@H](N)CCCN=C(N)N)P(=O)(O)O

>  <Measurement name>
MIC

>  <Experimental result>
2 µg/mL

$$$$
>  <Compound>
C[C@@H](NC(=O)[C@@H](N)CC[S+](C)[O-])P(=O)(O)O (stereo partly drawn)

>  <Measurement name>
MIC

>  <Experimental result>
32 µg/mL

$$$$
>  <Compound>
CCC[C@H](N)C(=O)N[C@H](C)P(=O)(O)O

>  <Measurement name>
MIC

>  <Experimental result>
0.5 µg/mL

$$$$
>  <Compound>
C[C@H](N)C(=O)N[C@@H](C)P(=O)(O)O

>  <Measurement name>
MIC

>  <Experimental result>
8 µg/mL

$$$$
>  <Compound>
CSC[C@H](N)C(=O)N[C@H](C)P(=O)(O)O

>  <Measurement name>
MIC

>  <Experimental result>
0.5 µg/mL

$$$$
>  <Compound>
C[C@@H](NC(=O)[C@@H](N)CCC/N=C(\N)N[N+](=O)[O-])P(=O)(O)O

>  <Measurement name>
MIC

>  <Experimental result>
4 µg/mL

$$$$

---

# Tested on: Klebsiella aerogenes
# Protocol description: Compound was tested for its antibacterial activity against Klebsiella aerogenes 331001 strain.
# Format: functional
Field: class. Source value: MIC. Ranges: low = under 0.1 µg/mL, medium = from 0.1 µg/mL up to 2 µg/mL, high = 2 µg/mL and over

>  <Compound>
CCC[C@H](N)C(=O)N[C@H](C)P(=O)(O)O

>  <Group label>
low

$$$$
>  <Compound>
CCCSC[C@H](N)C(=O)N[C@H](C)P(=O)(O)O

>  <Group label>
low

$$$$
>  <Compound>
CSC[C@H](N)C(=O)N[C@H](C)P(=O)(O)O

>  <Group label>
low

$$$$
>  <Compound>
C[C@@H](NC(=O)[C@@H](N)Cc1ccccc1)P(=O)(O)O

>  <Group label>
medium

$$$$
>  <Compound>
C[C@@H](NC(=O)[C@@H](N)CS)P(=O)(O)O

>  <Group label>
high

$$$$
>  <Compound>
C[C@H](N)C(=O)N[C@@H](C)P(=O)(O)O

>  <Group label>
medium

$$$$
>  <Compound>
CSCC[C@H](N)C(=O)N[C@H](C)P(=O)(O)O

>  <Group label>
medium

$$$$
>  <Compound>
C[C@@H](NC(=O)[C@@H](N)CC[S+](C)[O-])P(=O)(O)O (some centres undefined)

>  <Group label>
high

$$$$
>  <Compound>
C[C@@H](NC(=O)[C@@H](N)CF)P(=O)(O)O

>  <Group label>
high

$$$$
>  <Compound>
C[C@@H](NC(=O)[C@@H](N)CCS(C)(=O)=O)P(=O)(O)O

>  <Group label>
high

$$$$
>  <Compound>
C[C@@H](NC(=O)[C@@H](N)Cc1cccs1)P(=O)(O)O

>  <Group label>
medium

$$$$
>  <Compound>
C[C@@H](NC(=O)[C@@H](N)CCCCN=C(N)N)P(=O)(O)O

>  <Group label>
medium

$$$$
